I'd be grateful if you could share measured protein stability index for these entries.
B1: DVL3 (parent)
chain: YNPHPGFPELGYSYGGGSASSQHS

variants of: B1; assay: protein stability index of a GFP-peptide fusion (GPS, HEK-293T) (PSI 1-6); higher = more stable; settings: c terminus: a fixed tail appended;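 also: lentivirally expressed fusions sorted by FACS into six bins by GFP to DsRed ratio, PSI derived from sequencing read proportions per bin multiplied by bin number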
Answers are plain numbers.

Solved entries (count: 5):
>>> endpointresult("A19T")
2.53
>>> endpointresult("S21R")
2.86
>>> endpointresult("P8F")
2.23
>>> endpointresult("G6V")
2.7
>>> endpointresult("P8L")
2.12

Give one value of protein stability index per listed variant.
1. S18V
2. A19S
3. G6R
4. P8Y

Out:
[2.72, 2.79, 2.46, 2.33]

The measurements presented in this section are drawn from the supplement of paper PMC10567573.
